Target: T1, HCoV-HKU1 spike antigens (bead panel) (HCoV-HKU1, UniProt Q5MQD0 13-1300)
T1 sequence: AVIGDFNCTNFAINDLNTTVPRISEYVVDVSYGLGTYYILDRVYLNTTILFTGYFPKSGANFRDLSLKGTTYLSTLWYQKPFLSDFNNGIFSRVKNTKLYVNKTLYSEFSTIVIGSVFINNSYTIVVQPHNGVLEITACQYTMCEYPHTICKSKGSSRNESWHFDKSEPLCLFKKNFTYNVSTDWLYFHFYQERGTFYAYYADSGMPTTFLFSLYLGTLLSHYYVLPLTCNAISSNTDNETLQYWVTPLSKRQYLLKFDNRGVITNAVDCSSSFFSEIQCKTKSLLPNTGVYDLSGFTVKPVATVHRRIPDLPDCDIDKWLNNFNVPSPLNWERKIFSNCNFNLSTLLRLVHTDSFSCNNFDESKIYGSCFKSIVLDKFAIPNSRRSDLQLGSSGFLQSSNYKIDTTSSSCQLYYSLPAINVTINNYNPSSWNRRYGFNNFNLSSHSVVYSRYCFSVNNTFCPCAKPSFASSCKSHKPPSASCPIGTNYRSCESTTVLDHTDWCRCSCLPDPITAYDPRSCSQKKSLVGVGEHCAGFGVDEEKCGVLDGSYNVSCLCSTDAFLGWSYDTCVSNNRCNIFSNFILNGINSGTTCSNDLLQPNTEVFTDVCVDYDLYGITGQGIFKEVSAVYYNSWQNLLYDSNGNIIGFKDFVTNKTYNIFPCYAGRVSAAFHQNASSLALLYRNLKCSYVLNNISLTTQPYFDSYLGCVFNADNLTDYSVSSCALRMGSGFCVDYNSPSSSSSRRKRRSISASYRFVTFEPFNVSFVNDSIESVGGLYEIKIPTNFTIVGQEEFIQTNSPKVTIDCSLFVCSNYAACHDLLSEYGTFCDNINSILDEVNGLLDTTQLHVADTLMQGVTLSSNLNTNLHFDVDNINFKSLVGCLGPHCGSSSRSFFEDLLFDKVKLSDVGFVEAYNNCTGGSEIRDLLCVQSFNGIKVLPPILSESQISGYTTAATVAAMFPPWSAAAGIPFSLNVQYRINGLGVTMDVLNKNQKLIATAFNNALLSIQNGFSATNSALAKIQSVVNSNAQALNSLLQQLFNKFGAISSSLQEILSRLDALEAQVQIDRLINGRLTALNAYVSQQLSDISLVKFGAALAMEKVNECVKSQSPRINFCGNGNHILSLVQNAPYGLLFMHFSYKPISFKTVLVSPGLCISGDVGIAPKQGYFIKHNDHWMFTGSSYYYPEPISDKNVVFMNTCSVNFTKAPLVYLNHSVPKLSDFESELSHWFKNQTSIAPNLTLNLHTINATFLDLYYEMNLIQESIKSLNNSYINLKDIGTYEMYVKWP
Assay: multiplex bead assay
Observation type: binding result

Binder	binding result
COV_3053 (antibody, V domains shown, human IgG1) VH: EVQLVESGGGLVQPGRSLRLSCTASGFTLGDYAMTWVRQAPGKGLEWLGIIRNKRYGETKQYAASVKGRFTFSRDDSKGIGYLQRLSLKIEDTGVYYCTREHIVRDDAFDVWGQGTTVTVSS VL: DIVMTQSPDSLAVSLGERATINCKSSQSVLYSSNNKNYIAWYQQRPGQPPKLLIYWTSTRASGVPDRFSGSGSGTDFALTISSLQAEDVAVYYCQQYYTIPRTFGQGTKVEIK	no binding
COV_3088 (antibody, V domains shown, human IgG1) VH: EVQLVESGGGLVQPGGSLRLSCAASGFTFSSYDMHWVRQATGKGLEWVSAIGTAGDTYYPGSVKGRFTISRENAKNSLYLQMNSLRAGDTAVYYCARGSGWPPFFDYWGQGTLVTVSS VL: SYELTQPPSVSVAPGKTARITCGGNNIGSKSVHWYQQKPGQAPVLVIYYDSDRPSGIPERFSGSNSGNTATLTISRVEAGDEADYYCQVWDSSSDHHWVFGGGTKLTVL	no binding
COV_2039 (antibody, V domains shown, human IgG1) VH: QVQLVQSGAEVKKPGASVKVSCKVSGYMLIELSMHWVRQAPGKGLEWMGGFDPEDAETIYAQEFQGRVTMTEDTSTDTAYMELSSLRSEDTAVYYCTTGPAVTNRPADYWGPGTLVTVSS VL: QSVLTQPPSVSGAPGQRVTISCTGSSSNIGASYDVHWYQQLPGTAPKLLIYANSNRPSGVPDRFSGSKSGTSASLAITGLQAEDEADYYCQSYDSSLSYSVVFGGGTKLTVL	no binding
COV_2048 (antibody, V domains shown, human IgG1) VH: QVQLQESGPGLVKPSETLSLTCTVSGGSISNTSYYWGWIRQPPGKGLEWIGSIYRSGSTYYNPSLKSRVTISIDTSKNQFTLKLSSVTAADTAVYYCARDYYGDYSAKPMEYWGQGTLVTVSS VL: QSALTQPRSVSGSPGQSVTISCTGTSSDVGGYNYVSWYQQHPGKAPKLLIYDVSKRPSGVPDRFSGSKSGNTASLTISGLQAEDEADYYCCSYAGSYVVFGGGAKLTVLG	no binding

Write down binding result measured for item COV_1050 (antibody, V domains shown, human IgG1) VH: QVQLVESGGGVVQPGRSLRLSCAASRFTFSSYAMHWVRQAPGKGLEWVAVISFDGSNKYYADSVKGRFTIFRDNSKNTLSLQMNSLRTEDTAMYYCASPAGYYESLWGQGTLVTVSS VL: SYELTQPPSVSVSPGQTARVTCSGDALSKQYGFWYQQKPGQAPTLVIYKDTERPSGIPERFSGSGSGTTVTLTISGVQAEDEADYYCQSTDNSGRWVFGGGTKLTVLG
no binding
